assay: Liver microsomal stability assay (mouse); assay type: in vitro ADME; conditions: Mouse liver microsomes 0.5 mg/mL, NADPH and UDPGA, 1 µM compound
Measured Attribute: half-life at 1 µM (h)

CC(C)(O)c1cc2nc(C3CCN(CC4CCN(c5cc6c(cc5F)C(=O)N(C5CCC(=O)NC5=O)C6=O)CC4)CC3)cn2cc1NC(=O)c1cccc(C(F)(F)F)n1 (stereo not shown)	2.39

* * *

Measured AUC(0-t), listed per entry for reference.
experiment: In vivo pharmacokinetic study in mice; settings: mouse; male CD1 mice, Intravenous Injection (2 mg/kg), plasma
Measured Attribute: AUC(0-t) (ng·h/mL)

CC(C)(O)c1cc2nc(C3CCN(CC4CCN(c5cc6c(cc5F)C(=O)N(C5CCC(=O)NC5=O)C6=O)CC4)CC3)cn2cc1NC(=O)c1cccc(C(F)(F)F)n1 (centres unmarked)	870
CC(C)(O)c1cc2nc(C3CCN(CC4CCN(c5ccc6c(c5)C(=O)N(C5CCC(=O)NC5=O)C6=O)CC4)CC3)cn2cc1NC(=O)c1cccc(C(F)(F)F)n1 (centres unmarked)	550

* * *

Target: IRAK4 (Homo sapiens, UniProt Q9NWZ3)
Construct: expressed in transfected cells; host or cells: THP1 (THP1-HIBiT-IRAK4 engineered line)
Sequence (Q9NWZ3 1-460): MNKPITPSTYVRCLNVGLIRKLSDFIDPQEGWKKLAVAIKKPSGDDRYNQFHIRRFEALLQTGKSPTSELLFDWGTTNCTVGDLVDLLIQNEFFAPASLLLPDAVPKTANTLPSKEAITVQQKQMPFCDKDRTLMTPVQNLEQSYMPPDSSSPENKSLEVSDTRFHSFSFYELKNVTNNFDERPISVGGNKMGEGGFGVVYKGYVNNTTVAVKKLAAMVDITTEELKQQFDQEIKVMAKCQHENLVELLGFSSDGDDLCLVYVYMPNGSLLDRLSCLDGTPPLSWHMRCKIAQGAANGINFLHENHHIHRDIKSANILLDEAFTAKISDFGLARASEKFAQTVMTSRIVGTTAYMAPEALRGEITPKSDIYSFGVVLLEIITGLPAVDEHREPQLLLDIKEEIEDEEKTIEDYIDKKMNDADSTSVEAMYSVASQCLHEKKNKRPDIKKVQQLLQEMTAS
Test: HiBiT-based intracellular degradation assay of THP1-HIBiT-IRAK4 cells
Type: cell-based
Conditions: half-maximal degradation concentration of IRAK4 protein, 24 h incubation
Measured DC50, listed per entry for reference.
Measured Attribute: DC50 (nM)

CC(C)(O)c1cc2nc(C3CCN(CCC4CCN(c5ccc6c(c5)C(=O)N(C5CCC(=O)NC5=O)C6=O)CC4)CC3)cn2cc1NC(=O)c1cccc(C(F)(F)F)n1 (centres unmarked) [Example 18]	4.29
CC(C)(O)c1cc2nc(C3CCN(CC4CCN(c5ccc6c(c5)C(=O)N(C5CCC(=O)NC5=O)C6=O)CC4)CC3)cn2cc1NC(=O)c1cccc(C(F)(F)F)n1 (centres unmarked) [Example 1]	4.53
CC(C)(O)c1cc2nc(C3CCN(C4CN(C5CCN(c6ccc7c(c6)C(=O)N(C6CCC(=O)NC6=O)C7=O)CC5)C4)CC3)cn2cc1NC(=O)c1cccc(C(F)(F)F)n1 (centres unmarked) [Example 20]	1.35
CC(C)(O)c1cc2nc(C3CCN(CC4CCN(c5cc6c(cc5F)C(=O)N(C5CCC(=O)NC5=O)C6)CC4)CC3)cn2cc1NC(=O)c1cccc(C(F)(F)F)n1 (centres unmarked) [Example 23]	0.95

* * *

test: In vivo pharmacokinetic study in mice; conditions: mouse, plasma; male CD1 mice, Intravenous Injection (2 mg/kg)
Measured Attribute: clearance (mL/min/kg)

CC(C)(O)c1cc2nc(C3CCN(CC4CCN(c5cc6c(cc5F)C(=O)N(C5CCC(=O)NC5=O)C6=O)CC4)CC3)cn2cc1NC(=O)c1cccc(C(F)(F)F)n1 (centres unmarked)	37.2
CC(C)(O)c1cc2nc(C3CCN(CC4CCN(c5ccc6c(c5)C(=O)N(C5CCC(=O)NC5=O)C6=O)CC4)CC3)cn2cc1NC(=O)c1cccc(C(F)(F)F)n1 (centres unmarked)	59.5

* * *

biological target: IRAK4 (Homo sapiens); construct: expressed in transfected cells; host or cells: THP1 (THP1-HIBiT-IRAK4 engineered line); assay: HiBiT-based intracellular degradation assay of THP1-HIBiT-IRAK4 cells; assay type: cell-based; details: half-maximal degradation concentration of IRAK4 protein, 24 h incubation
Could you mark each record MET if its DC50 falls strictly under 5 nM, and NOT MET if it equals or exceeds it?

COc1cc2nc(C3CCN(CC4CCN(c5ccc6c(c5)C(=O)N(C5CCC(=O)NC5=O)C6=O)CC4)CC3)cn2cc1NC(=O)c1cccc(C(F)(F)F)n1 (centres unmarked)	NOT MET
CC(C)(O)c1cc2nc(C3CCN(CC(=O)N4CCN(c5ccc6c(c5)C(=O)N(C5CCC(=O)NC5=O)C6=O)CC4)CC3)cn2cc1NC(=O)c1cccc(C(F)(F)F)n1 (centres unmarked)	MET
CC(C)(O)c1cc2nc(C3CCN(CC4C5CN(c6ccc7c(c6)C(=O)N(C6CCC(=O)NC6=O)C7=O)CC45)CC3)cn2cc1NC(=O)c1cccc(C(F)(F)F)n1 (centres unmarked)	MET
CC(C)(O)c1cc2nc(C3CCN(CC4CCN(c5cc6c(cc5F)C(=O)N(C5CCC(=O)NC5=O)C6=O)CC4)CC3)cn2cc1NC(=O)c1cccc(C(F)(F)F)n1 (centres unmarked)	MET

* * *

experiment: Liver microsomal stability assay (monkey); type: in vitro ADME; conditions: Monkey liver microsomes 0.5 mg/mL, NADPH and UDPGA, 1 µM compound
Measured Attribute: half-life at 1 µM (h)

CC(C)(O)c1cc2nc(C3CCN(CC4CCN(c5cc6c(cc5F)C(=O)N(C5CCC(=O)NC5=O)C6=O)CC4)CC3)cn2cc1NC(=O)c1cccc(C(F)(F)F)n1 (stereo not shown)	3.2

* * *

molecular target: IRAK4 (Homo sapiens); construct: expressed in transfected cells; host or cells: THP1 (THP1-HIBiT-IRAK4 engineered line); assay: HiBiT-based intracellular degradation assay of THP1-HIBiT-IRAK4 cells; type: cell-based; settings: half-maximal degradation concentration of IRAK4 protein, 24 h incubation
Could you mark each record condition met if its DC50 falls strictly under 2 nM, and condition not met if it equals or exceeds it?

CC(C)(O)c1cc2nc(C3CCN(CCN4CCN(c5cc6c(cc5F)C(=O)N(C5CCC(=O)NC5=O)C6=O)CC4)CC3)cn2cc1NC(=O)c1cccc(C(F)(F)F)n1 (centres unmarked)	condition not met
CC(C)(O)c1cc2nc(C3CCN(CCN4CC5(C4)CN(c4ccc6c(c4)C(=O)N(C4CCC(=O)NC4=O)C6=O)C5)CC3)cn2cc1NC(=O)c1cccc(C(F)(F)F)n1 (centres unmarked)	condition not met
CC(C)(O)c1cc2nc(C3CCN(CC(=O)N4CC5(CCN(c6ccc7c(c6)C(=O)N(C6CCC(=O)NC6=O)C7=O)CC5)C4)CC3)cn2cc1NC(=O)c1cccc(C(F)(F)F)n1 (centres unmarked)	condition not met
CC(C)(O)c1cc2nc(C3CCN(CCN4CCN(c5ccc6c(c5)CN(C5CCC(=O)NC5=O)C6=O)CC4)CC3)cn2cc1NC(=O)c1cccc(C(F)(F)F)n1 (centres unmarked)	condition met

* * *

Measured half-life, listed per entry for reference.
experiment: In vivo pharmacokinetic study in mice; conditions: mouse, plasma; male CD1 mice, Oral Administration (20 mg/kg)
Measured Attribute: half-life (h)

CC(C)(O)c1cc2nc(C3CCN(CC4CCN(c5cc6c(cc5F)C(=O)N(C5CCC(=O)NC5=O)C6=O)CC4)CC3)cn2cc1NC(=O)c1cccc(C(F)(F)F)n1 (centres unmarked) [Example 15]	8.01
CC(C)(O)c1cc2nc(C3CCN(CC4CCN(c5ccc6c(c5)C(=O)N(C5CCC(=O)NC5=O)C6=O)CC4)CC3)cn2cc1NC(=O)c1cccc(C(F)(F)F)n1 (centres unmarked) [Example 1]	6.81

* * *

target: IRAK4 (Homo sapiens, UniProt Q9NWZ3); construct: expressed in transfected cells; host or cells: THP1 (THP1-HIBiT-IRAK4 engineered line); assay: HiBiT-based intracellular degradation assay of THP1-HIBiT-IRAK4 cells; format: cell-based; details: half-maximal degradation concentration of IRAK4 protein, 24 h incubation
Measured Attribute: DC50 (nM)

CC(C)(O)c1cc2nc(C3CCN(CC4CCN(c5cc6c(cc5F)C(=O)N([C@@H]5CCC(=O)NC5=O)C6=O)CC4)CC3)cn2cc1NC(=O)c1cccc(C(F)(F)F)n1	12.8
CC(C)(O)c1cc2nc(C3CCN(CCC(=O)N4CCN(c5ccc6c(c5)C(=O)N(C5CCC(=O)NC5=O)C6=O)CC4)CC3)cn2cc1NC(=O)c1cccc(C(F)(F)F)n1 (centres unmarked)	13.9
COc1cc2nc(C3CCN(CCN4CCN(c5ccc6c(c5)CN(C5CCC(=O)NC5=O)C6=O)CC4)CC3)cn2cc1NC(=O)c1cccc(C(F)(F)F)n1 (centres unmarked)	1.05
CC(C)(O)c1cc2nc(C3CCN(CCN4CCC5(CC4)CN(c4ccc6c(c4)C(=O)N(C4CCC(=O)NC4=O)C6=O)C5)CC3)cn2cc1NC(=O)c1cccc(C(F)(F)F)n1 (centres unmarked)	3.33
COc1cc2nc(C3CCN(CCN4CCN(c5ccc6c(c5)C(=O)N(C5CCC(=O)NC5=O)C6)CC4)CC3)cn2cc1NC(=O)c1cccc(C(F)(F)F)n1 (centres unmarked)	1.33
CC(C)(O)c1cc2nc(C3CCN(CC(=O)N4CCC5(CC4)CN(c4ccc6c(c4)C(=O)N(C4CCC(=O)NC4=O)C6=O)C5)CC3)cn2cc1NC(=O)c1cccc(C(F)(F)F)n1 (centres unmarked)	3.69
CC(C)(O)c1cc2nc(C3CCN(CCN4CCN(c5ccc6c(c5)C(=O)N(C5CCC(=O)NC5=O)C6)CC4)CC3)cn2cc1NC(=O)c1cccc(C(F)(F)F)n1 (centres unmarked)	0.64
CC(C)(O)c1cc2nc(C3CCN(CCN4CCN(c5ccc6c(c5)C(=O)N(C5CCC(=O)NC5=O)C6=O)CC4)CC3)cn2cc1NC(=O)c1cccc(C(F)(F)F)n1 (centres unmarked)	0.87

Provenance of the data: patent EP4748840A1
